test system: rodent lifetime carcinogenesis bioassay, tumor incidence TD50; experiment: carcinogenic potency in animals, long-term in vivo studies, CPDB compilation (AID 1745844); details: rat; strain Wistar albino; females; in drinking water; site: thyroid gland; lesion: adenoma; dosed 78 weeks; study length 78 weeks
outcomeMeasure: TD50

IN: Hi! What's the reported TD50 for CCCc1cc(=O)[nH]c(=S)[nH]1 on rodent lifetime carcinogenesis bioassay, tumor incidence TD50?
OUT: 15.8 mg/kg/day

###

test system: rodent lifetime carcinogenesis bioassay, tumor incidence TD50; assay: carcinogenic potency in animals, long-term in vivo studies, CPDB compilation (AID 1745844); details: rat; strain Charles River CD (Sprague-Dawley); males; in feed; site: urinary bladder; lesion: several types; types named in the paper; dosed 64 weeks; study length 68 weeks
outcomeMeasure: TD50

IN: Query (compound): Cc1ccccc1N ; field requested: TD50
OUT: 131 mg/kg/day

###

tested on: rodent lifetime carcinogenesis bioassay, tumor incidence TD50; assay: carcinogenic potency in animals, long-term in vivo studies, CPDB compilation (AID 1745844); conditions: mouse; strain NMRI; males; inhaled; site: kidney; lesion: cystadenoma; dosed 78 weeks; study length 118 weeks
outcomeMeasure: TD50

IN: Hi! What's the reported TD50 for ClC#CCl on rodent lifetime carcinogenesis bioassay, tumor incidence TD50?
OUT: 0.769 mg/kg/day

###

tested on: rodent lifetime carcinogenesis bioassay, tumor incidence TD50; assay: carcinogenic potency in animals, long-term in vivo studies, CPDB compilation (AID 1745844); settings: mouse; strain B6C3F1; males; by gavage; site: any site (literature study); lesion: several types; types named in the paper; dosed 67 weeks; study length 91 weeks
outcomeMeasure: TD50 (mg/kg/day)
# number only, unit mg/kg/day dropped from output

IN: Query (molecule): C=CCCl ; field requested: TD50
OUT: 184

###

system: rodent lifetime carcinogenesis bioassay, tumor incidence TD50; test: carcinogenic potency in animals, long-term in vivo studies, CPDB compilation (AID 1745844); settings: mouse; strain B6C3F1; males; in feed; site: all sites; lesion: lymphoma malignant, thymic origin; dosed 104 weeks; study length 104 weeks
outcomeMeasure: TD50

IN: Query (molecule): O=C1OC(c2ccc(O)cc2)(c2ccc(O)cc2)c2ccccc21 ; field requested: TD50
OUT: 2740 mg/kg/day

###

system: rodent lifetime carcinogenesis bioassay, tumor incidence TD50; experiment: carcinogenic potency in animals, long-term in vivo studies, CPDB compilation (AID 1745844); details: rat; strain Osborne-Mendel; both sexes; in feed; site: liver; lesion: hepatoma; dosed 104 weeks; study length 104 weeks
outcomeMeasure: TD50 (mg/kg/day)
# number only, unit mg/kg/day dropped from output

IN: Query (compound): CCN(Cc1cccc(S(=O)(=O)O)c1)c1ccc(C(=C2C=CC(=[N+](CC)Cc3cccc(S(=O)(=O)O)c3)C=C2)c2ccccc2S(=O)(=O)[O-])cc1 ; field requested: TD50
OUT: 62100

###

tested on: rodent lifetime carcinogenesis bioassay, tumor incidence TD50; assay: carcinogenic potency in animals, long-term in vivo studies, CPDB compilation (AID 1745844); conditions: mouse; strain B6C3F1; males; inhaled; site: all sites; lesion: hemangiosarcoma; dosed 52 weeks; study length 104 weeks
outcomeMeasure: TD50 (mg/kg/day)
# number only, unit mg/kg/day dropped from output

IN: Query (compound): C=CC=C ; field requested: TD50
OUT: 11.9
